System: 60 different human tumor cell lines
test method notes: NCI Development Therapeutics Program 60 cell line screen, one dose
Type: cell-based
measurement parameters: Non-small Cell Lung Cancer, HOP-62
property: Growth Percent (%)

[[record]]
smiles_repr = "C[C@]12CC[C@H]3[C@@H](CC=C4c5sc(Nc6ccccc6)nc5CC[C@@]43C)[C@@H]1CC[C@@H]2O"
target_desc = "60 different human tumor cell lines"
quantitative_readout = 34.18

[[record]]
smiles_repr = "C[C@]12CCc3sc(Nc4ccc(OC(F)(F)F)cc4)nc3C1=CC[C@@H]1[C@@H]2CC[C@]2(C)C(=O)CC[C@@H]12"
target_desc = "60 different human tumor cell lines"
quantitative_readout = 80.02

[[record]]
smiles_repr = "C[C@]12CCc3nc(Nc4ccc(O)cc4)sc3C1=CC[C@@H]1[C@@H]2CC[C@]2(C)C(=O)CC[C@@H]12"
target_desc = "60 different human tumor cell lines"
quantitative_readout = 92.69

[[record]]
smiles_repr = "C[C@]12CC[C@H]3[C@@H](CC=C4c5sc(-c6ccc(O)cc6)nc5CC[C@@]43C)[C@@H]1CC[C@@H]2O"
target_desc = "60 different human tumor cell lines"
quantitative_readout = 46.75

[[record]]
smiles_repr = "C[C@]12CCc3nc(N)sc3C1=CC[C@@H]1[C@@H]2CC[C@]2(C)C(=NNC(N)=O)CC[C@@H]12"
target_desc = "60 different human tumor cell lines"
quantitative_readout = 75.49

[[record]]
smiles_repr = "C[C@]12CCc3sc(NCCc4ccccc4)nc3C1=CC[C@@H]1[C@@H]2CC[C@]2(C)C(=O)CC[C@@H]12"
target_desc = "60 different human tumor cell lines"
quantitative_readout = 101.67

[[record]]
smiles_repr = "C[C@]12CCc3sc(Nc4ccc(F)cc4F)nc3C1=CC[C@@H]1[C@@H]2CC[C@]2(C)C(=O)CC[C@@H]12"
target_desc = "60 different human tumor cell lines"
quantitative_readout = 87.08

[[record]]
smiles_repr = "C[C@]12CCc3sc(Nc4cccc(O)c4)nc3C1=CC[C@@H]1[C@@H]2CC[C@]2(C)C(=O)CC[C@@H]12"
target_desc = "60 different human tumor cell lines"
quantitative_readout = 27.50

[[record]]
smiles_repr = "CN(c1ccccc1)c1nc2c(s1)CC[C@@]1(C)C2=CC[C@@H]2[C@@H]1CC[C@]1(C)C(=O)CC[C@@H]21"
target_desc = "60 different human tumor cell lines"
quantitative_readout = 70.07

